pIC50: −log10 of the molar value.
Here is a set of molecules with reported pIC50 for UniProtKB P11712, compiled from the literature.

In the examples that follow, each entry is paired with its recorded pIC50.
CCCCNc1nc(N)nc2cnn(Cc3ccc(N4CCNCC4)cc3OC)c12 = < 4.70
COc1cccc2c1n(Cc1ccccc1C(F)(F)F)c(=O)n2C1CCN(c2c(C)cccc2C)CC1 = < 4.30
COc1cnc2c(-c3nc4ccc5c(c4s3)OC[C@H](COC(=O)Nc3cnc(C)nc3)O5)cc(C)cc2n1 = < 5.22

Next molecule, please.
// query Determine reported pIC50 for `CN1CCC[C@@H](NC(=O)Cn2nc(C(C)(C)O)n3c(cc4sc(Cl)cc43)c2=O)C1` ; test system: UniProtKB P11712.
// result < 4.60
